// data source = patent US20080287445A1

Biological target: GPR73 (prokineticin 1 receptor) (Homo sapiens)
Construct: expressed in transfected cells; host or cells: HEK 293
Sequence (Q8TCW9 whole entry, species assumed): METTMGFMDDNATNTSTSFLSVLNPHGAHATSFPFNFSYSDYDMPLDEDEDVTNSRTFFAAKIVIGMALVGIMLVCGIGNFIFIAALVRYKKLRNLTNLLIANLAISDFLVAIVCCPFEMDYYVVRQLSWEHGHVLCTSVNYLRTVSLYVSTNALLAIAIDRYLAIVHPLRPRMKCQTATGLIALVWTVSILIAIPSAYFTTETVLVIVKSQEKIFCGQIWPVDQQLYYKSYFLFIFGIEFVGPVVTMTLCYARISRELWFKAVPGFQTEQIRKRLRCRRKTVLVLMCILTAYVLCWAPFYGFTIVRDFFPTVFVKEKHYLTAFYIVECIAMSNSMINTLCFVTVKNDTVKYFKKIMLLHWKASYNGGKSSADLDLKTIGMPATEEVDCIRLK
Assay: PK1 functional assay: Ca2+ mobilization screening for PK1 antagonists on the FLIPR
Format: cell-based
Settings: 10 μM compound; HEK 293 GPR73 cells; multiple values = multiple testing; 10 µM
Please respond with reported Ca^2+ Mobilization % Inh @ 10 μM for every item in the list.
Give the quantity in %, number only.

Prompt line: Request the reported Ca^2+ Mobilization % Inh @ 10 μM associated with "Cc1cc(C)c(CNc2nc(=O)n(Cc3ccc4c(c3)nnn4C)c(=O)n2Cc2ccc(OC(F)F)cc2)cn1"
Response line: 82

Prompt line: Request the reported Ca^2+ Mobilization % Inh @ 10 μM associated with COc1ccc(Cn2c(=O)nc(NCc3c(C)cc(C)nc3N)n(Cc3ccc4c(c3)CC(C)O4)c2=O)cc1 (stereo not shown)
Response line: 99

Prompt line: Request the reported Ca^2+ Mobilization % Inh @ 10 μM associated with "COc1ccc(Cn2c(CCc3cccnc3)cc(=O)n(Cc3ccc(OC)cc3)c2=O)cc1"
Response line: 86

Prompt line: Request the reported Ca^2+ Mobilization % Inh @ 10 μM associated with "COc1ccc(Cn2c(CCc3cccnc3N)cc(=O)n(Cc3ccc(OC)cc3)c2=O)cc1"
Response line: 95

Prompt line: Request the reported Ca^2+ Mobilization % Inh @ 10 μM associated with "COCCNc1ncccc1CNc1nc(=O)n(Cc2ccc(OC)cc2)c(=O)n1Cc1ccc(OC)cc1"
Response line: 100

Prompt line: Request the reported Ca^2+ Mobilization % Inh @ 10 μM associated with "Cc1cc(C)c(CNc2nc(=O)n(Cc3ccc4c(c3)CCO4)c(=O)n2Cc2ccc(OC(F)F)cc2)c(N)n1"
Response line: 98

Prompt line: Request the reported Ca^2+ Mobilization % Inh @ 10 μM associated with "COc1ccc(Cn2c(=O)nc(NCc3cnc(C)cc3C)n(Cc3ccc(OC)c([N+](=O)[O-])c3)c2=O)cc1"
Response line: 102

Prompt line: Request the reported Ca^2+ Mobilization % Inh @ 10 μM associated with "COc1ccc(Cn2c(NCc3cnc(C)cn3)nc(=O)n(Cc3ccc(OC)cc3)c2=O)cc1"
Response line: 97

Prompt line: Request the reported Ca^2+ Mobilization % Inh @ 10 μM associated with "Cc1cc(C)c(CNc2nc(=O)n(Cc3ccc4occc4c3)c(=O)n2Cc2ccc3c(c2)CCO3)c(N)n1"
Response line: 100

Prompt line: Request the reported Ca^2+ Mobilization % Inh @ 10 μM associated with "COCCCCCn1c(NCc2cccnc2N)nc(=O)n(Cc2ccc(OC)cc2)c1=O"
Response line: 95

Prompt line: Request the reported Ca^2+ Mobilization % Inh @ 10 μM associated with "Cc1cc(C)[n+]([O-])c(N)c1CNc1nc(=O)n(Cc2ccc3c(c2)CCO3)c(=O)n1Cc1ccc(OC(F)F)cc1"
Response line: 97

Prompt line: Request the reported Ca^2+ Mobilization % Inh @ 10 μM associated with "COc1ccc(Cn2c(NCc3cnc(C)cc3C)nc(=O)n(Cc3ccc4c(c3)OCO4)c2=O)cc1"
Response line: 93

Prompt line: Request the reported Ca^2+ Mobilization % Inh @ 10 μM associated with "COc1ccc(Cn2c(NCc3cnc(C)cc3C)cc(=O)n(Cc3ccc(OC)cc3)c2=O)cc1"
Response line: 101

Prompt line: Request the reported Ca^2+ Mobilization % Inh @ 10 μM associated with "COc1ccc(Cn2c(NCc3cccnc3N)nc(=O)n(Cc3ccc(F)cc3)c2=O)cc1"
Response line: 86

Prompt line: Request the reported Ca^2+ Mobilization % Inh @ 10 μM associated with "COc1ccc(Cn2c(NCc3ccccn3)nc(=O)n(Cc3ccc(OC)cc3)c2=O)cc1"
Response line: 95

Prompt line: Request the reported Ca^2+ Mobilization % Inh @ 10 μM associated with "COc1ccc(Cn2c(=O)nc(NCc3cnc(C)cc3C)n(Cc3ccc(OC(F)F)cc3)c2=O)cc1"
Response line: 39
